MIC overview
# Tested on: M. bovigenitalium ATCC 14173
Metric: MIC

molecule="C/C(=C\\C(=O)OCc1cccc(C#N)c1)CC1OCC(CC2OC2C(C)C(C)O)C(O)C1O (stereo not drawn) [Example 2, m-Cyanobenzyl monate A]" target_of_assay="M. bovigenitalium ATCC 14173" metric=MIC value_observed="≤ 0.01 µg/mL"
molecule="C/C(=C\\C(=O)OCc1ccccc1C#N)CC1OCC(CC2OC2C(C)C(C)O)C(O)C1O (stereo not drawn) [Example 1, o-Cyanobenzyl monate A]" target_of_assay="M. bovigenitalium ATCC 14173" metric=MIC value_observed="≤ 0.01 µg/mL"
molecule="C/C(=C\\C(=O)OCc1ccc(C#N)cc1)CC1OCC(CC2OC2C(C)C(C)O)C(O)C1O (stereo not drawn) [Example 3, p-Cyanobenzyl monate A]" target_of_assay="M. bovigenitalium ATCC 14173" metric=MIC value_observed="≤ 0.01 µg/mL"
